# Assay Explanation: Cardiotoxic effect on 2D primary heart muscle cell culture
# Assay type: cell-based, Swiss Webster mice
# Test Settings: Swiss Webster, mouse, primary fetal heart muscle cells, 2D monolayer culture, heart muscle cell monolayers, up to 500 µM, read-out: Toxicity 2D Culture (CC50)
Item-by-item account of CC50 at 72 h

{"columns": ["Sample Smiles", "CC50 at 72 h"],
 "data": [
  ["c1ccc(-c2cn(-c3ccccc3)nn2)cc1", "> 500 µM"],
  ["COc1ccc(-n2cc(-c3ccccc3)nn2)cc1", "> 500 µM"]
]}

====

# System: intracellular amastigote forms of T. cruzi (Dm28c-Luc)
# Assay Explanation: Activity against intracellular amastigotes in infected VERO cells (72 h)
# Format: cell-based, Trypanosoma cruzi
# Test Settings: Trypanosoma cruzi; infected VERO cells, 72 h, mean ± SD; read-out: Trypanocidal Activity Intracellular Amastigotes IC90

{"columns": ["Compound", "IC90"],
 "data": [
  ["COc1ccc(-n2cc(-c3ccccc3)nn2)cc1", "> 100 µM"],
  ["c1ccc(-c2cn(-c3ccccc3)nn2)cc1", "> 100 µM"],
  ["O=C(Cn1ccnc1[N+](=O)[O-])NCc1ccccc1 [Bz, benznidazole, reference compound]", "21.7 µM"],
  ["O=C(OCc1cn(-c2ccccc2Cl)nn1)c1ccccc1", "> 100 µM"]
]}
